biological target: GLP-1R in EndoC-βH1 cells (Homo sapiens (Human), UniProt P43220); test: EndoC cAMP Accumulation Assay; settings: EndoC-βH1 human pancreatic beta cell line; HTRF cAMP accumulation
Sequence (P43220 24-463): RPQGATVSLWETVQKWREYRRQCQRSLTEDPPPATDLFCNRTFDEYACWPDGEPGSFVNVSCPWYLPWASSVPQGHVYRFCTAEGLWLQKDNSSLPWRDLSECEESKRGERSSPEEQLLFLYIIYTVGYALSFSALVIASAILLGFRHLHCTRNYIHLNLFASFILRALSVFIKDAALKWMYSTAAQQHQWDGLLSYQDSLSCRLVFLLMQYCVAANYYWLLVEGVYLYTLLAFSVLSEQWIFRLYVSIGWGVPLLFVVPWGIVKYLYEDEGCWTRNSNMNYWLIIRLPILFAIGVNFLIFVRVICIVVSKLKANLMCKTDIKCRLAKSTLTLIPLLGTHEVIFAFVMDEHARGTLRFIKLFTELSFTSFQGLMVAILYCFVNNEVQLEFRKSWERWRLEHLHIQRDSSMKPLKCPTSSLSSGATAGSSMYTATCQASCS
test-readout: EC50 (nM)

>  <compound>
Cc1cc(C(=O)O)cc2c1nc(CN1C[C@@H]3[C@H](C1)[C@H]3c1cccc(OCc3ccc(C#N)cc3F)n1)n2C[C@@H]1CCO1 [Example 9]

>  <EC50 [nM]>
56

$$$$
>  <compound>
COc1cc(C(=O)O)cc2c1nc(CN1C[C@@H]3[C@H](C1)[C@H]3c1cccc(OCc3cc(C)ccc3F)n1)n2C[C@@H]1CCO1 [Example 21]

>  <EC50 [nM]>
1100

$$$$
>  <compound>
CCn1cncc1Cn1c(CN2C[C@@H]3[C@H](C2)[C@H]3c2cccc(OCc3ccc(C#N)cc3F)n2)nc2ccc(C(=O)O)cc21 [Example 10]

>  <EC50 [nM]>
88

$$$$
>  <compound>
CCn1cncc1Cn1c(CN2C[C@@H]3[C@H](C2)[C@H]3c2cccc(OCc3ccc(Cl)cc3F)n2)nc2c(OC)cc(C(=O)O)cc21 [Example 14]

>  <EC50 [nM]>
7.4

$$$$
>  <compound>
COc1cc(C(=O)O)cc2c1nc(CN1C[C@@H]3[C@H](C1)[C@H]3c1nc(OCc3ccc(C#N)cc3F)ccc1F)n2C[C@@H]1CCO1 [Example 1]

>  <EC50 [nM]>
5

$$$$
>  <compound>
COc1cc(C(=O)O)cc2c1nc(CN1C[C@@H]3[C@H](C1)[C@H]3c1nc(OCc3ccc(Cl)cc3F)ccc1Cl)n2C[C@@H]1CCO1 [Example 18]

>  <EC50 [nM]>
42

$$$$

a = N#Cc1ccc(COc2cccc([C@H]3[C@@H]4CN(Cc5nc6ccc(C(=O)O)cc6n5C[C@@H]5CCO5)C[C@@H]43)n2)c(F)c1 [Example 3]
b = COc1cc(C(=O)O)cc2c1nc(CN1C[C@@H]3[C@H](C1)[C@H]3c1cccc(OCc3ccc(C)cc3)n1)n2C[C@@H]1CCO1 [Example 23]
Please indicate which has the smaller reported EC50: a , or b . Identify your selection by its label.
a
(a: 21 nM, b: 31 nM)

1 = N#Cc1ccc(COc2ccc(F)c([C@H]3[C@@H]4CN(Cc5nc6ccc(C(=O)O)cc6n5C[C@@H]5CCO5)C[C@@H]43)n2)c(F)c1 [Example 2]
2 = N#Cc1ccc(COc2cccc([C@H]3[C@@H]4CN(Cc5nc6ccc(C(=O)O)cc6n5C[C@@H]5CCCO5)C[C@@H]43)n2)c(F)c1 [Example 6]
// task: argmin of EC50 over [ 1 , 2 ] Selection: enter the item's label.
1
(1: 26 nM, 2: 290 nM)

a = O=C(O)c1ccc2nc(CN3C[C@@H]4[C@H](C3)[C@H]4c3cccc(OCc4ccc(Cl)cc4F)n3)n(C[C@@H]3CCO3)c2c1 [Example 13]
b = COc1cc(C(=O)O)cc2c1nc(CN1C[C@@H]3[C@H](C1)[C@H]3c1cccc(OCc3ccc(F)cc3F)n1)n2C[C@@H]1CCO1 [Example 20]
Which has the smaller recorded EC50, a or b ? Pick one; state its label.
a

* * *

molecular target: GLP-1R in EndoC-βH1 cells (Homo sapiens (Human)); test: EndoC cAMP Accumulation Assay; conditions: EndoC-βH1 human pancreatic beta cell line; HTRF cAMP accumulation
test-readout: EC50 (µM)

Would you please look over these solved cases?
>  <smiles-structure>
O=C(O)c1ccc2nc(CN3C[C@@H]4[C@H](C3)[C@H]4c3nc(OCc4ccc(Cl)cc4F)ccc3F)n(C[C@@H]3CCO3)c2c1

>  <system-under-test>
GLP-1R in EndoC-βH1 cells (Homo sapiens (Human))

>  <units>
µM

>  <EC50>
0.024

$$$$
>  <smiles-structure>
CCn1cncc1Cn1c(CN2C[C@@H]3[C@H](C2)[C@H]3c2nc(OCc3ccc(Cl)cc3F)ccc2F)nc2c(OC)cc(C(=O)O)cc21

>  <system-under-test>
GLP-1R in EndoC-βH1 cells (Homo sapiens (Human))

>  <units>
µM

>  <EC50>
0.0093

$$$$
>  <smiles-structure>
COc1cc(C(=O)O)cc2c1nc(CN1C[C@@H]3[C@H](C1)[C@H]3c1nc(OCc3ccc(Cl)cc3F)ccc1C)n2C[C@@H]1CCO1

>  <system-under-test>
GLP-1R in EndoC-βH1 cells (Homo sapiens (Human))

>  <units>
µM

>  <EC50>
0.0096

$$$$
>  <smiles-structure>
CCn1cncc1Cn1c(CN2C[C@@H]3[C@H](C2)[C@H]3c2cccc(OCc3ccc(Cl)cc3F)n2)nc2ccc(C(=O)O)cc21

>  <system-under-test>
GLP-1R in EndoC-βH1 cells (Homo sapiens (Human))

>  <units>
µM

>  <EC50>
0.15

$$$$
>  <smiles-structure>
O=C(O)c1cc(F)c2nc(CN3C[C@@H]4[C@H](C3)[C@H]4c3cccc(OCc4ccc(Cl)cc4F)n3)n(C[C@@H]3CCO3)c2c1

>  <system-under-test>
GLP-1R in EndoC-βH1 cells (Homo sapiens (Human))

>  <units>
µM

>  <EC50>
0.028

$$$$
>  <smiles-structure>
COc1cc(C(=O)O)cc2c1nc(CN1C[C@@H]3[C@H](C1)[C@H]3c1cccc(OCc3ccc(Cl)cc3F)n1)n2C[C@@H]1CCO1

>  <system-under-test>
GLP-1R in EndoC-βH1 cells (Homo sapiens (Human))

>  <units>
µM

>  <EC50>
0.0065

$$$$

1 = CCn1cncc1Cn1c(CN2C[C@@H]3[C@H](C2)[C@H]3c2nc(OCc3ccc(C#N)cc3F)ccc2F)nc2c(OC)cc(C(=O)O)cc21
2 = N#Cc1ccc(COc2cccc([C@H]3[C@@H]4CN(Cc5nc6c(Cl)cc(C(=O)O)cc6n5C[C@@H]5CCO5)C[C@@H]43)n2)c(F)c1
3 = COc1cc(C(=O)O)cc2c1nc(CN1C[C@@H]3[C@H](C1)[C@H]3c1cccc(OCc3ccc(C#N)cc3F)n1)n2C[C@@H]1CCO1
Hello, I need these entries ordered by EC50, highest reading first. Thanks! Respond with the label ranking, as requested.
1, 2, 3

* * *

target: human GLP-1R receptor (Homo sapiens (Human), UniProt P43220, L260F); test: CHOK1 GLP-1R cAMP Assay; details: CHO-K1 cell line stably expressing human GLP-1R; HTRF cAMP; agonist activity
Sequence (P43220 24-463 L260F): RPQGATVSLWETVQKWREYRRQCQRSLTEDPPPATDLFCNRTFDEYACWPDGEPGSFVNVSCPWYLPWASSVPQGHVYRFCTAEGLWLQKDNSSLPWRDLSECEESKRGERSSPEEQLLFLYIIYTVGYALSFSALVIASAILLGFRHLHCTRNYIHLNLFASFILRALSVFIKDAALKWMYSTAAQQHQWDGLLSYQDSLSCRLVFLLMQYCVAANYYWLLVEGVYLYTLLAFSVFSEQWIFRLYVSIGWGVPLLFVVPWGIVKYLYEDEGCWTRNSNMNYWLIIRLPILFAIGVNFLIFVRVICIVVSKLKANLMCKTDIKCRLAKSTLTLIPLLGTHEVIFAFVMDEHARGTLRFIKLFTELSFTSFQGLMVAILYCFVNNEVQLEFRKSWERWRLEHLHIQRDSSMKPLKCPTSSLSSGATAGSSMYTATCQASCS
test-readout: EC50 (nM)

Solved cases (2 shown):
>  <compound>
Cc1cc(C(=O)O)cc2c1nc(CN1C[C@@H]3[C@H](C1)[C@H]3c1cccc(OCc3ccc(C#N)cc3F)n1)n2C[C@@H]1CCO1 [Example 9]

>  <EC50 (nM)>
78

$$$$
>  <compound>
COc1cc(C(=O)O)cc2c1nc(CN1C[C@@H]3[C@H](C1)[C@H]3c1cccc(OCc3ccc(C#N)cc3F)n1)n2C[C@@H]1CCO1 [Example 4]

>  <EC50 (nM)>
12

$$$$

1 = COc1cc(C(=O)O)cc2c1nc(CN1C[C@@H]3[C@H](C1)[C@H]3c1nc(OCc3ccc(C#N)cc3F)ccc1F)n2C[C@@H]1CCO1 [Example 1]
2 = CCn1cncc1Cn1c(CN2C[C@@H]3[C@H](C2)[C@H]3c2nc(OCc3ccc(C#N)cc3F)ccc2F)nc2c(OC)cc(C(=O)O)cc21 [Example 7]
Hi, I'm comparing two records. Which one has the lower EC50, 1 or 2 ? Refer to your chosen entry by its label in the reply.
1

P = COc1cc(C(=O)O)cc2c1nc(CN1C[C@@H]3[C@H](C1)[C@H]3c1cccc(OCc3ccc(C)cc3)n1)n2C[C@@H]1CCO1 [Example 23]
Q = CCn1cncc1Cn1c(CN2C[C@@H]3[C@H](C2)[C@H]3c2cccc(OCc3ccc(C#N)cc3F)n2)nc2ccc(C(=O)O)cc21 [Example 10]
Identify the entry with the smaller EC50: P or Q . I would appreciate it if you answered with the label of your choice.
Q
(Q: 42 nM, P: 74 nM)

a = COc1cc(C(=O)O)cc2c1nc(CN1C[C@@H]3[C@H](C1)[C@H]3c1cccc(OCc3ccc(F)cc3F)n1)n2C[C@@H]1CCO1 [Example 20]
b = COc1cc(C(=O)O)cc2c1nc(CN1C[C@@H]3[C@H](C1)[C@H]3c1nc(OCc3ccc(Cl)cc3F)ccc1C)n2C[C@@H]1CCO1 [Example 19]
Could you tell me which of these two has the smaller EC50 figure? First: a Second: b // respond with label for picked entry
b
(b: 19 nM, a: 62 nM)

* * *

Biological target: human GLP-1R receptor (Homo sapiens (Human), UniProt P43220, L260F)
Test: CHOK1 GLP-1R cAMP Assay
Conditions: CHO-K1 cell line stably expressing human GLP-1R; HTRF cAMP; agonist activity
Method: A cell line stably expressing the human GLP-1R receptor (NM 002062.5, including the naturally-occurring variant Leu260Phe) in a CHO-K1 (ATCC® CCL-61™) was used for assay. GLP-1 receptor mediated agonist activity was determined in a cell based assay measuring cyclic adenosine monophosphate (cAMP) levels in cells using Homogeneous Time-Resolved Fluorescence (HTRF) cAMP detection kit (CisBio catalog #62AM4PEC, cAMP Gs Dynamic range kit). […]
test-readout: EC50 (nM)

>  <compound>
CCn1cncc1Cn1c(CN2C[C@@H]3[C@H](C2)[C@H]3c2cccc(OCc3ccc(Cl)cc3F)n2)nc2c(OC)cc(C(=O)O)cc21 [Example 14]

>  <test-readout>
EC50

>  <units>
nM

>  <observed-value>
30

$$$$
>  <compound>
COc1cc(C(=O)O)cc2c1nc(CN1C[C@@H]3[C@H](C1)[C@H]3c1nc(OCc3ccc(Cl)cc3F)ccc1Cl)n2C[C@@H]1CCO1 [Example 18]

>  <test-readout>
EC50

>  <units>
nM

>  <observed-value>
66

$$$$

a = N#Cc1ccc(COc2ccc(F)c([C@H]3[C@@H]4CN(Cc5nc6ccc(C(=O)O)cc6n5C[C@@H]5CCO5)C[C@@H]43)n2)c(F)c1 [Example 2]
b = N#Cc1ccc(COc2cccc([C@H]3[C@@H]4CN(Cc5nc6c(Cl)cc(C(=O)O)cc6n5C[C@@H]5CCO5)C[C@@H]43)n2)c(F)c1 [Example 8]
c = COc1cc(C(=O)O)cc2c1nc(CN1C[C@@H]3[C@H](C1)[C@H]3c1cccc(OCc3ccccc3OC(F)F)n1)n2C[C@@H]1CCO1 [Example 22]
d = O=C(O)c1ccc2nc(CN3C[C@@H]4[C@H](C3)[C@H]4c3cccc(OCc4ccc(Cl)cc4F)n3)n(C[C@@H]3CCO3)c2c1 [Example 13]
Order the items by recorded EC50; the first position goes to the largest value. Answer format: the labels, in the requested order.
d, c, a, b
